Reference source: patent US20200147235A1

Target: T1, Cynomolgus monkey CD98 ECD with C-terminal His-tag (cynomolgus monkey, UniProt P08195 105-529 (human entry))
T1 construct: also called cyCD98 ECD; recombinant cynomolgus monkey CD98 extracellular domain
T1 chain: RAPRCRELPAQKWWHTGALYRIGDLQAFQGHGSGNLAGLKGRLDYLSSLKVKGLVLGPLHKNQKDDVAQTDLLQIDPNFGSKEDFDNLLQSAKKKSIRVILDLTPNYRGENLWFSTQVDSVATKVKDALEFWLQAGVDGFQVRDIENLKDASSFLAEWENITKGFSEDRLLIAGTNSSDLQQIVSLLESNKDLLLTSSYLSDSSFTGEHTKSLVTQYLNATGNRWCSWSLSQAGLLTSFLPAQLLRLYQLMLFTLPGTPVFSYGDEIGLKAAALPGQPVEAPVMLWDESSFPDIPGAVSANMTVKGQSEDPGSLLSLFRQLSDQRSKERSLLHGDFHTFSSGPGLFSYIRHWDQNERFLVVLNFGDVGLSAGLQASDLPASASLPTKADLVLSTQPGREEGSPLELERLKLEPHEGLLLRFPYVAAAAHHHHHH
Assay: SPR Biacore, anti-Fc capture of mAb, CD98 ECD analyte
ENDPOINT: pKd
One number for each entry, as −log10 of the molar value.

// query Indicate the recorded pKd value for this binder: Recombinant anti-CD98 chimeric antibody chAb5 (antibody, human IgG1, V domains shown) VH: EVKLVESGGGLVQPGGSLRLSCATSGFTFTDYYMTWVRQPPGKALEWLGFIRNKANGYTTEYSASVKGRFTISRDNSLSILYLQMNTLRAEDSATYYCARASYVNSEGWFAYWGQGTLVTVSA VL: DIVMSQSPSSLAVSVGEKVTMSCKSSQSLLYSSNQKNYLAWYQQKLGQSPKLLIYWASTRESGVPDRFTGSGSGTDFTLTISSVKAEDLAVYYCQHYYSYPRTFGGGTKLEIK
// result 7.60
